Tested on: T1, SARS‐CoV‐2 spike membrane protein of the Delta variant (B.1.617.2) (SARS-CoV-2, Delta variant B.1.617.2, strain)
T1 construct: also called Delta spike protein
Procedure summary: flow cytometry on cells
Experimental parameters: one partner purified
Experimental readout: MdFI

Summary for this binder, 3467 (antibody, V domains shown, also called TRIANNI mouse‐derived antibody 3467) VH: QVQLQESGPGLVKPSETLSLTCTVSGGSISSYHWNWIRQPPGKGLEWIGYIYYSGNTNYNPSLKSRVSISTDTSKNQFSLKLSSVTAADTAVYYCVREMRRGYSGYDYWDLYAFDIWGQGTMVTVSS VL: DIQLTQSPSFLSASVGDRVTITCRASQGISSYLAWYQQKPGKAPNLLIYAASTLQSGVPSRFSGSGSGTEFTLTISSLQPEDFATYYCQQLNSYPHTFGQGTKLEIK : MdFI is 31000
